System: C2C12 cells
Experiment description: Alkaline Phosphatase (ALP) functional activity assay in C2C12 cells
Assay type: cell-based, Mouse
Condition summary: Mus musculus, C2C12, 144 h; compounds of Formula II or IV, presence of calcium phosphate matrix, normalized to DMSO treatment
Measured endpoint: activation at 0.5 µM

// query Reported activation at 0.5 µM for Cc1ccc(N[C@H]2C[C@H](C)N(C(=O)c3ccccc3)c3ccc(C)cc32)cc1 (relative stereo) : what is it?
// result < 5%

// query Same again, this time with COc1ccc(C(=O)N2c3ccc(F)cc3[C@@H](Nc3ccc(F)cc3)C[C@@H]2C)cc1 (relative stereo)
// result 50 to 100%

// query Same again, this time with Cc1ccc(N[C@@H]2C[C@H](C)N(C(=O)c3ccccc3)c3ccc(C)cc32)cc1 (relative stereo)
// result < 5%

// query Same again, this time with COc1ccc(N[C@H]2C[C@H](C)Nc3ccc(OC)cc32)cc1 (relative stereo)
// result 5 to 50%

// query Same again, this time with Cc1ccc(N[C@H]2C[C@H](C)N(C(=O)C(C)C)c3ccc(C)cc32)cc1 (relative stereo)
// result 50 to 100%

// query Same again, this time with C[C@H]1C[C@@H](Nc2ccc(F)cc2)c2cc(F)ccc2N1C(=O)c1ccccc1 (relative stereo)
// result 5 to 50%

// query Same again, this time with Cc1ccc(N(C(=O)c2ccccc2)[C@H]2C[C@H](C)N(C(=O)c3ccccc3)c3ccc(C)cc32)cc1 (relative stereo)
// result < 5%
